# CONDITION DETAILS: in DMF, 323.15 K

CHEMICAL STRING | solubility (mole fraction)
CC(CO)(CO)C(=O)O | 0.218

----------
# CONDITION DETAILS: in n-butanol, 328.15 K
ASSAY ENDPOINT: solubility (mole fraction)

CHEMICAL STRING | ASSAY ENDPOINT | ENDPOINT RESULT
CC(CO)(CO)C(=O)O | solubility (mole fraction) | 0.0257

----------
# CONDITION DETAILS: in methanol, 313.15 K
ASSAY ENDPOINT: solubility (mole fraction)

CHEMICAL STRING | ENDPOINT RESULT
CC(CO)(CO)C(=O)O | 0.0436

----------
# CONDITION DETAILS: in water, 313.15 K

CHEMICAL STRING | solubility (mole fraction)
CC(CO)(CO)C(=O)O | 0.0265

----------
# CONDITION DETAILS: in isopropanol, 308.15 K
ASSAY ENDPOINT: solubility (mole fraction)

CHEMICAL STRING | ASSAY ENDPOINT | ENDPOINT RESULT
CC(CO)(CO)C(=O)O | solubility (mole fraction) | 0.0164

----------
# CONDITION DETAILS: in n-propanol, 318.15 K
ASSAY ENDPOINT: solubility (mole fraction)

CHEMICAL STRING | ENDPOINT RESULT
CC(CO)(CO)C(=O)O | 0.0189

----------
# CONDITION DETAILS: in isopropanol, 303.15 K
ASSAY ENDPOINT: solubility (mole fraction)

CHEMICAL STRING | ENDPOINT RESULT
CC(CO)(CO)C(=O)O | 0.0131

----------
# CONDITION DETAILS: in n-propanol, 288.15 K
ASSAY ENDPOINT: solubility (mole fraction)

CHEMICAL STRING | ASSAY ENDPOINT | ENDPOINT RESULT
CC(CO)(CO)C(=O)O | solubility (mole fraction) | 0.00677

----------
# CONDITION DETAILS: in methyl acetate, 293.15 K
ASSAY ENDPOINT: solubility (mole fraction)

CHEMICAL STRING | ASSAY ENDPOINT | ENDPOINT RESULT
CC(CO)(CO)C(=O)O | solubility (mole fraction) | 0.00072

----------
# CONDITION DETAILS: in acetone, 308.15 K

CHEMICAL STRING | solubility (mole fraction)
CC(CO)(CO)C(=O)O | 0.00477

----------
# CONDITION DETAILS: in methanol, 303.15 K

CHEMICAL STRING | solubility (mole fraction)
CC(CO)(CO)C(=O)O | 0.0334

----------
# CONDITION DETAILS: in DMF, 288.15 K

CHEMICAL STRING | solubility (mole fraction)
CC(CO)(CO)C(=O)O | 0.163

----------
# CONDITION DETAILS: in DMF, 308.15 K
ASSAY ENDPOINT: solubility (mole fraction)

CHEMICAL STRING | ENDPOINT RESULT
CC(CO)(CO)C(=O)O | 0.191

----------
# CONDITION DETAILS: in methanol, 318.15 K

CHEMICAL STRING | solubility (mole fraction)
CC(CO)(CO)C(=O)O | 0.0498

----------
# CONDITION DETAILS: in ethanol, 323.15 K

CHEMICAL STRING | solubility (mole fraction)
CC(CO)(CO)C(=O)O | 0.0341

----------
# CONDITION DETAILS: in water, 308.15 K

CHEMICAL STRING | solubility (mole fraction)
CC(CO)(CO)C(=O)O | 0.0231

----------
# CONDITION DETAILS: in ethyl acetate, 293.15 K

CHEMICAL STRING | solubility (mole fraction)
CC(CO)(CO)C(=O)O | 0.00048

----------
# CONDITION DETAILS: in methyl acetate, 318.15 K
ASSAY ENDPOINT: solubility (mole fraction)

CHEMICAL STRING | ASSAY ENDPOINT | ENDPOINT RESULT
CC(CO)(CO)C(=O)O | solubility (mole fraction) | 0.00234

----------
# CONDITION DETAILS: in n-propanol, 328.15 K

CHEMICAL STRING | solubility (mole fraction)
CC(CO)(CO)C(=O)O | 0.027

----------
# CONDITION DETAILS: in sec-butanol, 323.15 K
ASSAY ENDPOINT: solubility (mole fraction)

CHEMICAL STRING | ASSAY ENDPOINT | ENDPOINT RESULT
CC(CO)(CO)C(=O)O | solubility (mole fraction) | 0.0232

----------
# CONDITION DETAILS: in n-butyl acetate, 323.15 K

CHEMICAL STRING | solubility (mole fraction)
CC(CO)(CO)C(=O)O | 0.00098

----------
# CONDITION DETAILS: in n-butanol, 318.15 K
ASSAY ENDPOINT: solubility (mole fraction)

CHEMICAL STRING | ENDPOINT RESULT
CC(CO)(CO)C(=O)O | 0.0181

----------
# CONDITION DETAILS: in DMF, 328.15 K
ASSAY ENDPOINT: solubility (mole fraction)

CHEMICAL STRING | ENDPOINT RESULT
CC(CO)(CO)C(=O)O | 0.225

----------
# CONDITION DETAILS: in acetone, 288.15 K

CHEMICAL STRING | solubility (mole fraction)
CC(CO)(CO)C(=O)O | 0.00255

----------
# CONDITION DETAILS: in acetone, 303.15 K
ASSAY ENDPOINT: solubility (mole fraction)

CHEMICAL STRING | ENDPOINT RESULT
CC(CO)(CO)C(=O)O | 0.004

----------
# CONDITION DETAILS: in sec-butanol, 288.15 K

CHEMICAL STRING | solubility (mole fraction)
CC(CO)(CO)C(=O)O | 0.0068

----------
# CONDITION DETAILS: in n-butanol, 298.15 K

CHEMICAL STRING | solubility (mole fraction)
CC(CO)(CO)C(=O)O | 0.00911

----------
# CONDITION DETAILS: in isopropanol, 318.15 K

CHEMICAL STRING | solubility (mole fraction)
CC(CO)(CO)C(=O)O | 0.0209

This collection of values is drawn from BigSolDB 2.1.
